- study-target: Angiotensin II-Rezeptor (Rattus norvegicus, UniProt P25095)
- Construct: Das Gewebe (Rattenlunge) wird in Tris-Puffer; from tissue; host or cells: rat lung homogenate (membrane pellet, 20,000 x g)
- Sequence (P25095 whole entry): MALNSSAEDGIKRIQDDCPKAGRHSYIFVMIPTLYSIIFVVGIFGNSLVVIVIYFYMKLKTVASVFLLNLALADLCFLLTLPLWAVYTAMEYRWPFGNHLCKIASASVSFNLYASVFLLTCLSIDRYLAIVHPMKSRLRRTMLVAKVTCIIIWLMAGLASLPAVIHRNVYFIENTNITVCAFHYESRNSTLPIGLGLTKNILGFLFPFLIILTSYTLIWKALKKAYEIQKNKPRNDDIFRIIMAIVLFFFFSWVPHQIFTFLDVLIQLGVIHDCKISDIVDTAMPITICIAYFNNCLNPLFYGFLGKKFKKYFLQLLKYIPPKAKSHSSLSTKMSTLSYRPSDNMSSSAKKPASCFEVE
- assay-remarks: Angiotensin II receptor binding (displacement of [125I]-angiotensin II, rat lung homogenate)
- Design: species or system Ratte
- condition-details: Rattenlunge homogenate; 50 pM [125I]-Angiotensin II; 60 Min. bei 37°C; read-out: IC₅₀
recorded-metric: IC50 (nM)

- CCCCc1nc2c(C)ccc(OCCCn3ccnc3)c2n1Cc1ccc(-c2ccccc2-c2nnn[nH]2)cc1 [Substanz L]: 240
- CCCc1nc2c(C)cc(-c3cn4c(n3)CCCC4)cc2n1Cc1ccc(-c2ccccc2C(=O)O)cc1 [Substanz P]: 1.2
- CCCc1nc2c(C)cc(-c3nc4ccccc4n3C)cc2n1Cc1ccc(-c2ccccc2C(=O)O)cc1 [Substanz D]: 3.7
- Cc1cc(-c2nc3ccccc3n2C)cc2c1nc(C1CC1)n2Cc1ccc(-c2ccccc2C(=O)O)cc1 [Substanz M]: 12
- CCCCc1nc2c(C)ccc(OCCCn3cnc4ccccc43)c2n1Cc1ccc(-c2ccccc2C(=O)O)cc1 [Substanz B]: 52
- CCCCc1nc2c(C)cc(N3C(=O)C(C)=C(C)C3=O)cc2n1Cc1ccc(-c2ccccc2C(=O)O)cc1 [Substanz H]: 20
- CCCCc1nc2c(C)cc(NC(=O)N3CCOCC3)cc2n1Cc1ccc(-c2ccccc2C(=O)O)cc1 [Substanz J]: 3.5

----------
Readings of IC50 for the listed compounds
- study-target: Angiotensin II-Rezeptor (Rattus norvegicus)
- Construct: Das Gewebe (Rattenlunge) wird in Tris-Puffer; from tissue; host or cells: rat lung homogenate (membrane pellet, 20,000 x g)
- assay-remarks: Angiotensin II receptor binding (displacement of [125I]-angiotensin II, rat lung homogenate)
- Parameters: species or system Ratte
- condition-details: Rattenlunge homogenate; 50 pM [125I]-Angiotensin II; 60 Min. bei 37°C; read-out: IC₅₀
recorded-metric: IC50

- CCCc1nc2c(C)cc(N3Cc4ccccc4C3=O)cc2n1Cc1ccc(-c2ccccc2-c2nnn[nH]2)cc1: 5 nM
- CCCc1nc2c(C)cc(N3CCCCS3(=O)=O)cc2n1Cc1ccc(-c2ccccc2-c2nn[nH]n2)cc1: 1.2 nM
- CCCCc1nc2c(C)cc(NC(=O)C(C)C)cc2n1Cc1ccc(-c2ccccc2C(=O)O)cc1: 6.6 nM

All figures here come from patent EP0502314A1.
